Test system: Staphylococcus aureus strains (MRSA, hVISA, VISA, VRSA, quinolone-resistant MRSA)
Experiment: MIC by agar dilution against Staphylococcal strains (MRSA, hVISA, VISA, VRSA, quinolone-resistant MRSA)
Format: cell-based
Conditions: Staphylococcus aureus, hVISA(2) + VISA (24) + VRSA (5)
MIC50 for assorted molecules
Quote the value and follow it with the unit of measurement.

Q) Name the reported MIC50 value associated with the molecule "CN[C@H](CC(C)C)C(=O)N[C@H]1C(=O)N[C@@H](CC(N)=O)C(=O)N[C@H]2C(=O)N[C@H]3C(=O)N[C@H](C(=O)N[C@H](C(=O)O)c4cc(O)cc(O)c4-c4cc3ccc4O)[C@H](O)c3ccc(c(Cl)c3)Oc3cc2cc(c3O[C@@H]2O[C@H](CO)[C@@H](O)[C@H](O)[C@H]2O[C@H]2C[C@](C)(N)[C@H](O)[C@H](C)O2)Oc2ccc(cc2Cl)[C@H]1O"
A) 4 µg/mL

***
Q) Name the reported MIC50 value associated with the molecule "COc1c(N2C[C@@H]3CCCN[C@@H]3C2)c(F)cc2c(=O)c(C(=O)O)cn(C3CC3)c12"
A) 4 µg/mL

Q) Name the reported MIC50 value associated with the molecule "C[C@H]1COc2c(N3CCN(C)CC3)c(F)cc3c(=O)c(C(=O)O)cn1c23"
A) 16 µg/mL

Q) Name the reported MIC50 value associated with the molecule "CC(=O)NC[C@H]1CN(c2ccc(N3CCOCC3)c(F)c2)C(=O)O1"
A) 1 µg/mL

Q) Name the reported MIC50 value associated with the molecule "COc1c(N2C[C@@H](C)C[C@H](N)C2)ccc2c(=O)c(C(=O)O)cn(C3CC3)c12"
A) 1 µg/mL

Origin of values: patent US8211909B2
